Cited source for all entries: paper PMC11855827

Listing: Percentage of motility inhibition 0 h of selected compounds
System: C. elegans
Conditions: Table S2, C. elegans SS assay, 110 μM, 0 h, averages of 4 data points

- Compound: "C[C@@H]1O[C@@H](c2c(O)c([C@@H]3O[C@H](CO)[C@@H](O)[C@H](O)[C@H]3O)c(O)c3c(=O)cc(-c4ccc(O)cc4)oc23)[C@H](O)[C@H](O)[C@H]1O [Violanthin]"
  Percentage of motility inhibition 0 h [%]: 0
- Compound: "COc1cc2c3c(c1O)-c1ccccc1C[C@@H]3N(C)CC2 [Lirinidine]"
  Percentage of motility inhibition 0 h [%]: 0
- Compound: "C[C@@H]1O[C@@H](O[C@H]2[C@H](O[C@H]3CC[C@@]4(C)[C@@H](CC[C@]5(C)[C@@H]4CC=C4[C@@H]6CC(C)(C)CC[C@]6(C(=O)O[C@@H]6O[C@H](CO[C@@H]7O[C@H](CO)[C@@H](O)[C@H](O)[C@H]7O)[C@@H](O)[C@H](O)[C@H]6O)CC[C@]45C)[C@]3(C)CO)OC[C@H](O)[C@@H]2O)[C@H](O)[C@H](O[C@@H]2O[C@H](CO)[C@@H](O[C@@H]3O[C@H](CO)[C@@H](O)[C@H](O)[C@H]3O)[C@H](O)[C@H]2O)[C@H]1O [Macranthoidin B]"
  Percentage of motility inhibition 0 h [%]: 6
- Compound: "C=CCCCCCCCCC(=O)O [10-Undecenoic acid]"
  Percentage of motility inhibition 0 h [%]: 0
- Compound: "Oc1cc(O)c2c(c1)O[C@H](c1cc(O)c(O)c(O)c1)[C@@H](O)C2 [(+)‐Gallocatechin]"
  Percentage of motility inhibition 0 h [%]: 0

###

Listing: inhibition at 110 µM of selected compounds
Test system: C. elegans
Assay: microbe, parasite or virus in culture
Conditions: Caenorhabditis elegans, 24 h, read-out: Percentage of motility inhibition 24 h, Table S2, C. elegans SS assay, 110 μM, 24 h, averages of 4 data points
Quantity: inhibition at 110 µM (%)

- Compound: "C[C@]1(COc2ccc(N3CCC(Oc4ccc(OC(F)(F)F)cc4)CC3)cc2)Cn2cc([N+](=O)[O-])nc2O1"
  Assayed target: "C. elegans"
  Unit annotation: "%"
  Obs value: 21
- Compound: "CC(C)=C[C@H]1C[C@](C)(O)[C@@H]2[C@H]3CC[C@@H]4[C@@]5(C)CC[C@H](O[C@@H]6O[C@H](CO)[C@@H](O)[C@H](O[C@@H]7O[C@H](CO)[C@@H](O)[C@H](O)[C@H]7O)[C@H]6O[C@@H]6O[C@@H](CO)[C@H](O)[C@H]6O)C(C)(C)[C@@H]5CC[C@@]4(C)[C@@]34CO[C@@]2(C4)O1 [Bacoside A3]"
  Assayed target: "C. elegans"
  Unit annotation: "%"
  Obs value: 0
- Compound: "COC(=O)[C@]1(C)CC[C@]2(C)CC[C@]3(C)C4=CC=C5C(=CC(=O)C(O)=C5C)[C@]4(C)CC[C@@]3(C)[C@@H]2C1"
  Assayed target: "C. elegans"
  Unit annotation: "%"
  Obs value: 23
- Compound: "CC(=O)O[C@]1(C(C)=O)CC[C@H]2[C@@H]3C[C@H](C)C4=CC(=O)CC[C@]4(C)[C@H]3CC[C@@]21C [Medroxyprogesterone acetate]"
  Assayed target: "C. elegans"
  Unit annotation: "%"
  Obs value: 6
- Compound: "C[C@H](CC[C@@H](O)C(C)(C)O)[C@H]1CC[C@@]2(C)[C@@H]3CC=C4[C@@H](CC[C@H](O)C4(C)C)[C@]3(C)[C@H](O)C[C@]12C"
  Assayed target: "C. elegans"
  Unit annotation: "%"
  Obs value: 2
- Compound: "NC(=O)c1ccccc1O [Salicylamide]"
  Assayed target: "C. elegans"
  Unit annotation: "%"
  Obs value: 0

###

Test: Mouse intestinal organoids' tolerance assay (alamarBlue)
Conditions: C57BL/6, mouse
Listing: CC50 at 3 d of selected molecules
Quantity: CC50 at 3 d (µM)

- Molecule: "CCCCCCCCN=c1ccn(CCCCCCCCCCn2ccc(=NCCCCCCCC)cc2)cc1 [Octenidine, reference compound]"
  Unit annotation: "µM"
  Qualifying sign: "="
  Obs value: 14.2
- Molecule: "O=C(/C=C/c1ccccc1)c1ccccc1 [Chalcone]"
  Unit annotation: "µM"
  Qualifying sign: ">"
  Obs value: 50

###

System: C. elegans
Experiment: microbe, parasite or virus in culture
Details: Caenorhabditis elegans, 24 h, read-out: Percentage of motility inhibition 24 h, Table S2, C. elegans SS assay, 110 μM, 24 h, averages of 4 data points
The label depends only on inhibition at 110 µM: Yes if it is at least 9%, No if it is smaller.

- Compound: "Cc1cc(C(C#N)c2ccc(Cl)cc2)c(Cl)cc1NC(=O)c1cc(I)cc(I)c1O (centres unmarked)"
  Answer label: "Yes"
- Compound: "CSCC1CN(/N=C/c2ccc([N+](=O)[O-])o2)C(=O)O1 (centres unmarked)"
  Answer label: "No"
- Compound: "CC(C)CNC(=O)/C=C/C=C/c1ccc2c(c1)OCO2"
  Answer label: "Yes"
- Compound: "O=c1cc(-c2ccccc2)oc2ccccc12"
  Answer label: "No"
- Compound: "CC1(C)[C@@H](O)CC[C@]2(C)[C@H]3C(=O)C=C4[C@H]5C[C@@](C)(C(=O)O)CC[C@]5(C)CC[C@@]4(C)[C@]3(C)CC[C@@H]12"
  Answer label: "Yes"
- Compound: "CCCCC/C=C/C(=O)CCc1ccc(O)c(OC)c1"
  Answer label: "No"
- Compound: "COc1cc(C2Oc3cc([C@H]4Oc5cc(O)cc(O)c5C(=O)[C@@H]4O)ccc3OC2CO)ccc1O (some centres unmarked)"
  Answer label: "No"
- Compound: "O=C(O)/C=C/c1ccc(O)c(O)c1"
  Answer label: "Yes"
- Compound: "Cc1cccc(C)c1NC(=O)c1ccccc1C(=O)O [Ftaxilide]"
  Answer label: "Yes"
- Compound: "C=C1CC[C@H]2C(=C)CC[C@H]3C(=C)C(=O)O[C@@H]3[C@@H]12 [Dehydrocostus Lactone]"
  Answer label: "Yes"
- Compound: "C=C1C[C@@]23CC[C@H]4[C@@](C)(CCC[C@@]4(C)C(=O)O)[C@@H]2CC[C@@H]1C3"
  Answer label: "No"
- Compound: "CC(C)=CCC[C@](C)(O)[C@H]1CC[C@]2(C)[C@@H]1[C@H](O)C[C@@H]1[C@@]3(C)CC[C@H](O)C(C)(C)[C@@H]3[C@@H](O[C@@H]3O[C@H](CO)[C@@H](O)[C@H](O)[C@H]3O[C@@H]3O[C@@H](C)[C@H](O)[C@@H](O)[C@H]3O)C[C@]12C [Ginsenoside Rg2]"
  Answer label: "No"
- Compound: "Cc1nc(C)c(C)nc1C"
  Answer label: "No"
- Compound: "O=C(O)CCCc1c[nH]c2ccccc12"
  Answer label: "No"
- Compound: "N#CC(c1ccc(Cl)cc1)c1c(Cl)cc(-n2ncc(=O)[nH]c2=O)cc1Cl (centres unmarked)"
  Answer label: "Yes"
- Compound: "C=C1CCC[C@]2(C)C[C@@H]3OC(=O)C(C)=C3C[C@@H]12 [Atractylenolide II]"
  Answer label: "No"
- Compound: "CC(C)C1=Cc2ccc3c(c2C(=O)C1=O)CCCC3(C)C"
  Answer label: "Yes"
- Compound: "Cc1ccnc(NS(=O)(=O)c2ccc(N)cc2)n1"
  Answer label: "No"
- Compound: "C=C(C)[C@H]1CN[C@H](C(=O)O)[C@H]1CC(=O)O"
  Answer label: "No"
- Compound: "C[C@]12CC[C@@H]3c4ccc(O)cc4CC[C@H]3[C@@H]1C[C@@H](O)[C@@H]2O"
  Answer label: "Yes"
- Compound: "CC1CCc2cc(F)cc3c(=O)c(C(=O)O)cn1c23 (centres unmarked)"
  Answer label: "Yes"
- Compound: "C=C1C[C@@]23CC[C@H]4[C@@](C)(CCC[C@@]4(C)C(=O)O[C@@H]4O[C@H](CO)[C@@H](O)[C@H](O)[C@H]4O)[C@@H]2CC[C@]1(O[C@@H]1O[C@H](CO)[C@@H](O)[C@H](O)[C@H]1O[C@@H]1O[C@@H](C)[C@H](O)[C@@H](O)[C@H]1O)C3 [Dulcoside A]"
  Answer label: "Yes"
- Compound: "COc1ccc(-c2cc(=O)c3c(O)c(OC)c(O)c(OC)c3o2)cc1"
  Answer label: "No"
- Compound: "COc1cc(O)ccc1/C=C/C(=O)c1ccc(O)cc1"
  Answer label: "Yes"
- Compound: "CC(C)NCC(O)COc1cccc2ccccc12 (centres unmarked) [Propranolol, reference compound]"
  Answer label: "No"
- Compound: "O[C@H]1[C@H](O)[C@@H](O)[C@H](O)[C@@H](O)[C@H]1O"
  Answer label: "No"
- Compound: "CCCCCCCCCCCCCCCCCC(=O)O"
  Answer label: "No"
- Compound: "CC(=O)O[C@]12CCC(C(=O)O)=CC[C@]13CC[C@H]2[C@@](C)(/C=C/C=C(\\C)C(=O)O)OC3=O"
  Answer label: "No"
- Compound: "Cc1ccnc2c1NC(=O)c1cccnc1N2C1CC1"
  Answer label: "No"
